Reported cell viability is given for each of the following compounds.
# System: HL-60
# test-name: cell viability (% survival relative to DMSO control); higher = less cytotoxic
# test-conditions: 1 µM; 72 h; co-treatment: pictilisib 100 nM
// note: answer is a bare numeric in %

These recorded examples may help you get a feel for the data.
Nc1ncnc2c1ncn2[C@@H]1O[C@H](CSCC[C@H](N)C(=O)O)[C@@H](O)[C@H]1O    97.8
C1CCc2nnc(C34CC5CC(CC(C5)C3)C4)n2CC1    95.5
C#Cc1cnc(O)nc1O    102
O=C(O)c1nn(Cc2ccc(Cl)cc2Cl)c2ccccc12    103

Now turn to the next compound.
### Prompt Supply measured cell viability of [N-]=[N+]=CC(=O)CC[C@H](N)C(=O)O in your reply.
### Response 105

* * *

# Tested on: KU-812
# test-name: cell viability (% survival relative to DMSO control, bortezomib = 0%); higher = less cytotoxic
# test-conditions: 1 nM; 72 h
measured-parameter: cell viability
Provide the measurement as a number trailed by its unit.

These recorded examples may help you get a feel for the data.
Cl.OC[C@H]1NC[C@@H](O)[C@@H](O)[C@@H]1O [1-Deoxymannojirimycin hydrochloride]    101%
N[C@](CCCCB(O)O)(CCN1CCCCC1)C(=O)O    102%
CCOC(=O)[C@@]1(CCCCCCOc2ccc(Cl)cc2)CO1    91.3%
C1CCc2nnc(C34CC5CC(CC(C5)C3)C4)n2CC1    97.6%
Oc1cc(Cl)ccc1Oc1ccc(Cl)cc1Cl    98.8%
c1ccc2c(c1)OCC(=C1NCCN1)O2    105%
O=C(c1ccc(OCCN2CCCCC2)cc1)c1c(-c2ccc(O)cc2)sc2cc(O)ccc12    97.1%
C[C@]12CC[C@H](O)CC1=CC[C@@H]1[C@@H]2CC[C@]2(C)C(c3cccnc3)=CC[C@@H]12    88.8%

### Prompt Supply measured cell viability of Clc1ccc(COC(Cn2ccnc2)c2ccc(Cl)cc2Cl)cc1 (centres undefined) in your reply.
### Response 113%

* * *

# Test system: HL-60
# test-name: cell viability (% survival relative to DMSO control, bortezomib = 0%); higher = less cytotoxic
# test-conditions: 10 nM; 72 h
measured-parameter: cell viability (%)
// note: answer is a bare numeric in %

O=C1Oc2ccccc2C(=O)C1CC1C(=O)Oc2ccccc2C1=O (stereo not given)    102
OCCN1CCN(CCCN2c3ccccc3Sc3ccc(Cl)cc32)CC1    133
C[C@]12CC[C@H](O)CC1=CC[C@@H]1[C@@H]2CC[C@]2(C)C(c3cccnc3)=CC[C@@H]12    97.7
O=C(COc1ccc(C(=O)c2ccccc2)cc1)NC1CCN(Cc2ccccc2)CC1    118
O=C(O)CC[C@H](NC(=O)c1ccc([N+](=O)[O-])cc1)C(=O)O [(S)-2-(4-Nitrobenzamido)pentanedioic acid]    107
C#Cc1cnc(O)nc1O    134
Oc1cc(Cl)ccc1Oc1ccc(Cl)cc1Cl    76.6
CCOc1ccc(Cc2cc([C@@H]3O[C@H](CO)[C@@H](O)[C@H](O)[C@H]3O)ccc2Cl)cc1    86.8

### Prompt Supply measured cell viability of Clc1ccc2c(c1Cl)CNCC2 in your reply.
### Response 194

### Prompt Supply measured cell viability of c1ccc2c(c1)OCC(=C1NCCN1)O2 in your reply.
### Response 80.3

### Prompt Supply measured cell viability of COc1cc2c(NC3CCN(C)CC3)nc(N3CCCN(C)CC3)nc2cc1OCCCN(C)C in your reply.
### Response 123

### Prompt Supply measured cell viability of O=C(O)C(Cl)Cl [Dichloroacetate] in your reply.
### Response 115

### Prompt Supply measured cell viability of Cc1ccc(S(=O)(=O)NC2c3ccccc3Oc3ccccc32)cc1 in your reply.
### Response 112

### Prompt Supply measured cell viability of NC(=O)c1ncn([C@@H]2O[C@H](CO)[C@@H](O)[C@H]2O)n1 in your reply.
### Response 101

### Prompt Supply measured cell viability of C1CCC(C(CC2CCCCN2)C2CCCCC2)CC1.O=C(O)/C=C\C(=O)O (stereo not given) in your reply.
### Response 90.1

### Prompt Supply measured cell viability of C[C@]12O[C@H](C[C@]1(O)CO)n1c3ccccc3c3c4c(c5c6ccccc6n2c5c31)CNC4=O in your reply.
### Response 77.6

### Prompt Supply measured cell viability of Cc1noc2c1-c1ccccc1C(c1ccc(Cl)cc1)=N[C@H]2CC(N)=O in your reply.
### Response 102

### Prompt Supply measured cell viability of CC(C)Cc1sc(N)nc1-c1ccc(P(=O)(O)O)o1 in your reply.
### Response 90.1

### Prompt Supply measured cell viability of O=P(O)(O)C(O)(Cn1ccnc1)P(=O)(O)O in your reply.
### Response 111

### Prompt Supply measured cell viability of O=c1c2ccccc2[se]n1-c1ccccc1 in your reply.
### Response 94.8

* * *

# Tested on: HL-60
# test-name: cell viability (% survival relative to DMSO control, bortezomib = 0%); higher = less cytotoxic
# test-conditions: 1000 nM; 72 h
Reported cell viability is given for each of the following molecules.
Provide the measurement as a number trailed by its unit.

### Prompt Supply measured cell viability of CCOC(=O)[C@@]1(CCCCCCOc2ccc(Cl)cc2)CO1 in your reply.
### Response 98.5%

### Prompt Supply measured cell viability of CC(Cc1ccc(O)c(O)c1)C(C)Cc1ccc(O)c(O)c1 (configuration not stated) in your reply.
### Response 90%

### Prompt Supply measured cell viability of O=C(O)C(S)=Cc1c[nH]c2ccc(F)cc12 in your reply.
### Response 66.7%

* * *

Reported cell viability is given for each of the following molecules.
# Tested on: NOMO-1
# test-name: cell viability (% survival relative to DMSO control, bortezomib = 0%); higher = less cytotoxic
# test-conditions: 1 nM; 72 h
// note: answer is a bare numeric in %

Cc1c(-c2ccccc2)oc2c(C(=O)OCCN3CCCCC3)cccc2c1=O.Cl [Flavoxate]    93.8
O=C(COc1ccc(C(=O)c2ccccc2)cc1)NC1CCN(Cc2ccccc2)CC1    102
CC(C)C[C@H](NC(=O)[C@@H](O)[C@H](N)Cc1ccccc1)C(=O)O    105
CCN(CC)CCN(Cc1ccc(-c2ccc(C(F)(F)F)cc2)cc1)C(=O)Cn1c(SCc2ccc(F)cc2)nc(=O)c2c1CCC2    98.6
O=C(O)c1cc2sccc2[nH]1 [4H-thieno[3,2-b]pyrrole-5-carboxylic acid]    105
CCOC(=O)N1c2ccc(C(F)(F)F)cc2[C@@H](N(Cc2cc(C(F)(F)F)cc(C(F)(F)F)c2)C(=O)OC)C[C@H]1CC    103
O=P(O)(O)C(O)(Cn1ccnc1)P(=O)(O)O    98.8

### Prompt Supply measured cell viability of O=c1c2ccccc2[se]n1-c1ccccc1 in your reply.
### Response 93.7

* * *

# Test system: K-562
# test-name: cell viability (% survival relative to DMSO control, bortezomib = 0%); higher = less cytotoxic
# test-conditions: 100 nM; 72 h
measured-parameter: cell viability (%)
// note: answer is a bare numeric in %

These recorded examples may help you get a feel for the data.
c1ccc2c(c1)OCC(=C1NCCN1)O2 [Idazoxan]    90.7
Oc1cc(Cl)ccc1Oc1ccc(Cl)cc1Cl [Triclosan]    93.8
[N-]=[N+]=CC(=O)CC[C@H](N)C(=O)O [6-Diazo-5-oxo-L-norleucine]    99.5
C[C@]12CC[C@H](O)CC1=CC[C@@H]1[C@@H]2CC[C@]2(C)C(c3cccnc3)=CC[C@@H]12 [Abiraterone]    107
Clc1ccc(COC(Cn2ccnc2)c2ccc(Cl)cc2Cl)cc1 (stereo not drawn) [Econazole]    93.1
CC(C)Cc1sc(N)nc1-c1ccc(P(=O)(O)O)o1    109

### Prompt Supply measured cell viability of COc1cc2c(NC3CCN(C)CC3)nc(N3CCCN(C)CC3)nc2cc1OCCCN(C)C [UNC0224] in your reply.
### Response 102

### Prompt Supply measured cell viability of C[C@H]1O[C@@H](O[C@H]2[C@@H](O)C[C@H](O[C@H]3[C@@H](O)C[C@H](O[C@H]4CC[C@@]5(C)[C@H](CC[C@@H]6[C@@H]5C[C@@H](O)[C@]5(C)[C@@H](C7=CC(=O)OC7)CC[C@]65O)C4)O[C@@H]3C)O[C@@H]2C)C[C@H](O)[C@@H]1O [Digoxin] in your reply.
### Response 41.8

* * *

Reported cell viability is given for each of the following compounds.
# Tested on: BV-173
# test-name: cell viability (% survival relative to DMSO control, bortezomib = 0%); higher = less cytotoxic
# test-conditions: 100 nM; 72 h
// note: answer is a bare numeric in %

These recorded examples may help you get a feel for the data.
O=C(O)C(S)=Cc1c[nH]c2ccc(F)cc12    85.1
C[C@H]1O[C@@H](O[C@H]2[C@@H](O)C[C@H](O[C@H]3[C@@H](O)C[C@H](O[C@H]4CC[C@@]5(C)[C@H](CC[C@@H]6[C@@H]5C[C@@H](O)[C@]5(C)[C@@H](C7=CC(=O)OC7)CC[C@]65O)C4)O[C@@H]3C)O[C@@H]2C)C[C@H](O)[C@@H]1O    3.24
O=C(O)CC[C@H](NC(=O)c1ccc([N+](=O)[O-])cc1)C(=O)O [(S)-2-(4-Nitrobenzamido)pentanedioic acid]    92.8
COc1c(C)c2c(c(O)c1C/C=C(\C)CCC(=O)O)C(=O)OC2    115
CN(C)c1nc(O)c2[nH]cnc2n1 [2-Dimethylamino-6-hydroxypurine]    93.5
O=C(O)CCc1ccc(NCc2cccc(Oc3ccccc3)c2)cc1    97.1

Now turn to the next compound.
### Prompt Supply measured cell viability of NC(=O)c1ncn([C@@H]2O[C@H](CO)[C@@H](O)[C@H]2O)n1 in your reply.
### Response 112

Sourced from the supplement of paper PMC8671470
